Could you please report measured Kd for the items listed next?
Study system: T1, EsCas13d, nuclease-dead (Eubacterium siraeum, UniProt B0MS50, R295A;H300A;R849A;H854A)
T1 sequence: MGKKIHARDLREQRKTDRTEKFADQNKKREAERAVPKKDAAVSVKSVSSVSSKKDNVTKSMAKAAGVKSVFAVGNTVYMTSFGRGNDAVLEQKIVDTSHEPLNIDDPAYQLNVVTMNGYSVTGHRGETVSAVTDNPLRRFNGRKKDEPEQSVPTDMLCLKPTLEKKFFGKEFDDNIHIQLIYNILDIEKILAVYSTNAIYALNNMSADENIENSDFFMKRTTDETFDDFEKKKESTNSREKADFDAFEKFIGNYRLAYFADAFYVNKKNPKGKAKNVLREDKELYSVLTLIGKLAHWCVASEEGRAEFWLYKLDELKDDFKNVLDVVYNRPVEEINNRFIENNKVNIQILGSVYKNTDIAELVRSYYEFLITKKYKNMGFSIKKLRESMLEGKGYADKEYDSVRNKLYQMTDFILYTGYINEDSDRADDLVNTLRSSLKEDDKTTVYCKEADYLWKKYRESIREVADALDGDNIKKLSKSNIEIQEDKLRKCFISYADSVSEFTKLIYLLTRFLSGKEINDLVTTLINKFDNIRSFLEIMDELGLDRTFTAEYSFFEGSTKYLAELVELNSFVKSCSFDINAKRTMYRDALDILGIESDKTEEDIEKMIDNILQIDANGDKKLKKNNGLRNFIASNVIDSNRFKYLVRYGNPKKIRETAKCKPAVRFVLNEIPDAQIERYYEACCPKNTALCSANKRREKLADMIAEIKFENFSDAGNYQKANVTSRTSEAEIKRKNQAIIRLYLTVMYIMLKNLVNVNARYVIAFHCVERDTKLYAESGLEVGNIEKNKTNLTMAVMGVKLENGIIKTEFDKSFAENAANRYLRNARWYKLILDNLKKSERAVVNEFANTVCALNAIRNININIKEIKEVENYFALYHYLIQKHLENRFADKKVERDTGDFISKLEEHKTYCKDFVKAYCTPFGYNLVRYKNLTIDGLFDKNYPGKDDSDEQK
Test summary: crRNA (strand 1, pre-loaded); Mg2+; 40 mM Tris-HCl pH 7.5, 150 mM NaCl, 6 mM MgCl2, 1 mM DTT, 0.1% Tween-20, 0.2 mg/ml BSA; 25 C; 10 min per concentration, then washed
Reported conditions: tags: His6-TwinStrep-SUMO cleaved; N-terminal SNAP kept (SNAP-Surface 488); label: 3' end held by stalled T7 RNA polymerase
One number for each entry, in nM.

Worked cases, Kd given:
{"Binder": "target 1 C2A,G17A (mixed) RNA 1: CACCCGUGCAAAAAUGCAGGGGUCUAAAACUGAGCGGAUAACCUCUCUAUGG RNA 2: GGGAAUGGAUCCACAUCUACGAAUUCGUACCAUAAAGAGGUUAUCCGCUAACCGAGAUCGGAAGAGCACACGU", "Data value": 47}
{"Binder": "target 1 C6U,U19C (mixed) RNA 1: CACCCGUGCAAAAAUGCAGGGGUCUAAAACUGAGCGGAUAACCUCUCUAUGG RNA 2: GGGAAUGGAUCCACAUCUACGAAUUCGUACCACAGAGAGGUUAUCUGCUCACCGAGAUCGGAAGAGCACACGU", "Data value": 29.7}
{"Binder": "target 3 insG 3' of 11,insU 3' of 3 (mixed) RNA 1: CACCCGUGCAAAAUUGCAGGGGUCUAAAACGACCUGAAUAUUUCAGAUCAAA RNA 2: GGGAAUGGAUCCACAUCUACGAAUUCGUUUUUGAUCUGAAAGUAUUCAGGUUCUGCAGAUCGGAAGAGCACACGU", "Data value": 96}
{"Binder": "target 1 insU 3' of 22,insU 3' of 2 (mixed) RNA 1: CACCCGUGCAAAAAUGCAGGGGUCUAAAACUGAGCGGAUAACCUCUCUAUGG RNA 2: GGGAAUGGAUCCACAUCUACGAAUUCGUACUCAUAGAGAGGUUAUCCGCUCUACCGAGAUCGGAAGAGCACACGU", "Data value": 35.9}
{"Binder": "target 1 insU 3' of 17,insU 3' of 4 (mixed) RNA 1: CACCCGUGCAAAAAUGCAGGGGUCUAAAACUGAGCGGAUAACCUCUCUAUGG RNA 2: GGGAAUGGAUCCACAUCUACGAAUUCGUACCAUAGUAGAGGUUAUCCGCUUCACCGAGAUCGGAAGAGCACACGU", "Data value": 19.2}
{"Binder": "target 1 MT 5'PFS GAA 3'PFS AUA (mixed) RNA 1: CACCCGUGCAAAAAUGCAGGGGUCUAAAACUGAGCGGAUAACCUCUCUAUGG RNA 2: GGGAAUGGAUCCACAUCUACGAAUUCGAACCAUAGAGAGGUUAUCCGCUCAAUAAGAUCGGAAGAGCACACGU", "Data value": 32}

Working through the 6 binders below one at a time, give Kd for each.
1. target 1 insG 3' of 8,insG 3' of 6 (mixed) RNA 1: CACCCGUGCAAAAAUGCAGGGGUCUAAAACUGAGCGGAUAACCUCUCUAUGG RNA 2: GGGAAUGGAUCCACAUCUACGAAUUCGUACCAUAGAGAGGUUAUGCCGGCUCACCGAGAUCGGAAGAGCACACGU
2. target 1 MT 5'PFS AGG 3'PFS AUA (mixed) RNA 1: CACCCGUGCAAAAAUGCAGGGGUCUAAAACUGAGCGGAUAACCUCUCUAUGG RNA 2: GGGAAUGGAUCCACAUCUACGAAUUCAGGCCAUAGAGAGGUUAUCCGCUCAAUAAGAUCGGAAGAGCACACGU
3. target 3 G3C,A18G (mixed) RNA 1: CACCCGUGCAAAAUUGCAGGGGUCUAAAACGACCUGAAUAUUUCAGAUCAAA RNA 2: GGGAAUGGAUCCACAUCUACGAAUUCGUUUUUGGUCUGAAAUAUUCAGCUCUGCAGAUCGGAAGAGCACACGU
4. target 1 insU 3' of 15,insU 3' of 7 (mixed) RNA 1: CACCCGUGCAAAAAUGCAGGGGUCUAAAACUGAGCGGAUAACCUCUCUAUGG RNA 2: GGGAAUGGAUCCACAUCUACGAAUUCGUACCAUAGAGUAGGUUAUCUCGCUCACCGAGAUCGGAAGAGCACACGU
5. target 1 insC 3' of 11,insG 3' of 1 (mixed) RNA 1: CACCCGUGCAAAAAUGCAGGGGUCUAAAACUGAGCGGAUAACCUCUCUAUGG RNA 2: GGGAAUGGAUCCACAUCUACGAAUUCGUACCAUAGAGAGGUCUAUCCGCUCAGCCGAGAUCGGAAGAGCACACGU
6. target 3 insA 3' of 8,insU 3' of 5 (mixed) RNA 1: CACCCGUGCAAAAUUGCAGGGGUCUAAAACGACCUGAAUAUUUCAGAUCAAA RNA 2: GGGAAUGGAUCCACAUCUACGAAUUCGUUUUUGAUCUGAAAUAUAUCAUGGUCUGCAGAUCGGAAGAGCACACGU

Completion:
7.05
26.5
38.7
8.47
35
33.9

Prompt: Quick check: Kd of target 2 MT 5'PFS GUC 3'PFS UCC (mixed) RNA 1: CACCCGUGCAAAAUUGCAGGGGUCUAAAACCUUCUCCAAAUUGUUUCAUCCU RNA 2: GGGAAUGGAUCCACAUCUACGAAUUCGUCAGGAUGAAACAAUUUGGAGAAGUCCAGAUCGGAAGAGCACACGU ?
Completion: 42
